target: Aryl hydrocarbon receptor (Homo sapiens) (UniProt P35869); experiment: qHTS assay to identify small molecule that activate the aryl hydrocarbon receptor (AhR) signaling pathway (AID 743085); details: HepG2 AhR-luc (HG2L7.5c1), luciferase, 24 h; series mostly up to 70.3 µM; note: nearly all actives have a fitted effect of over 15% in size;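 for activation: HG2L7.5c1 human HepG2 liver cells with stably integrated DRE-driven firefly reporter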
Sequence (P35869 whole entry, looked up): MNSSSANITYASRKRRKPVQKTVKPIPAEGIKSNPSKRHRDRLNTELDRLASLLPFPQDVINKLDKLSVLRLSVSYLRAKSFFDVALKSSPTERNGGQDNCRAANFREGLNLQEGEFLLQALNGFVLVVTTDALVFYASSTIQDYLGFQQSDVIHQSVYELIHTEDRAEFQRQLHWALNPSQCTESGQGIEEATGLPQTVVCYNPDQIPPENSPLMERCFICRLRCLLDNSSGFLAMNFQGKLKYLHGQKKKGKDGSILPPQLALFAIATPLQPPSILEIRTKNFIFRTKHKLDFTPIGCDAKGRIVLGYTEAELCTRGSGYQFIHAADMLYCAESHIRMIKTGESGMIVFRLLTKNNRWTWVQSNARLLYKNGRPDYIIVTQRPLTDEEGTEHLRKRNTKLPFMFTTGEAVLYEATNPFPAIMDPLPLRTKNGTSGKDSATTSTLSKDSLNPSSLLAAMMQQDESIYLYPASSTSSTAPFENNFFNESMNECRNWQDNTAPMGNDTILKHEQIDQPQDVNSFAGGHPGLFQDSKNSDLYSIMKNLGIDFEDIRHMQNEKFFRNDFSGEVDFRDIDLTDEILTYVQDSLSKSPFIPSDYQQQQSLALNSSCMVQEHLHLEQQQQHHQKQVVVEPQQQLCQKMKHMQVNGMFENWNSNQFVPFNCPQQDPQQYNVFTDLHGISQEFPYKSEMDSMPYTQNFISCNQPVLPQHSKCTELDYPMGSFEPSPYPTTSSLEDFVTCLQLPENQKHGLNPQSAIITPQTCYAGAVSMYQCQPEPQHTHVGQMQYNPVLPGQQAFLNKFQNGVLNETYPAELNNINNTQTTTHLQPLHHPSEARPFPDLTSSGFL
Records with an inconclusive call do not appear. Activity calls are given as the source filed them. Calls come from the whole dose curve; as a rule, active = well fitted activation curve with a large enough effect in the repeat runs; inconclusive = weak or mixed curves; inactive = no such curve, though single readings can be large or run the other way.
Your reply should match one of these outcome classes. active, inactive

Query: So what was the verdict on CC1(C)CCC(Cc2ccc(Cl)cc2)C1(O)Cn1cncn1 (configuration not stated) in this test?
Response: inactive

Query: Test call, this compound: `C=CCC1([C@H](C)CCC)C(=O)NC(=O)NC1=O`
Response: inactive

Query: Recorded test outcome, item CCC(COC(=O)c1cc(OC)c(OC)c(OC)c1)(c1ccccc1)N(C)C (configuration not stated)
Response: inactive

Query: What call does the record list for CC1C(=O)C[C@]2(C(C)C)C[C@H]12 (some centres not stated) ?
Response: inactive

Query: Which outcome was assigned to `CCCCN=C=O` in this test?
Response: inactive

Query: Per the records of this test, what outcome belongs to `c1ccc(CN2CCNCC2)cc1` ?
Response: inactive

Query: Called result for `Cc1cc(=O)[nH]o1`
Response: inactive

Query: Can you look up the reported call for `O=C(CBr)c1ccccc1` for me?
Response: inactive

Query: Which outcome was entered for the compound CCC(C)(NC(=O)c1cc(Cl)c(C)c(Cl)c1)C(=O)CCl (configuration not stated) in this test?
Response: inactive

Query: Called result for `CCOP(O)OCC`
Response: inactive

Query: Which result was noted for this compound in the test: `O=C(CCl)c1ccc(Cl)cc1Cl`
Response: inactive

Query: Outcome logged for CCCCC(O)(Cn1cncn1)c1ccc(Cl)cc1Cl (configuration not stated) in this assay:
Response: inactive

Query: I would be grateful if you could indicate the recorded call for COP(=S)(Oc1cc(Cl)c(Br)cc1Cl)c1ccccc1 (configuration not stated) .
Response: active

Query: How was `Cc1ccc(-c2c(Cl)nc(C#N)n2S(=O)(=O)N(C)C)cc1` classified in this test?
Response: inactive

Query: Assay outcome for `NCCCNCCCN` : what was it?
Response: inactive

Query: So what was the verdict on `Cl/C=C\Cl` in this test?
Response: inactive

Query: So what was the verdict on `c1ccc(C2CC2)c(OCC2=NCCN2)c1` in this test?
Response: inactive

Query: Please indicate how the test categorized `CC(C)(C)c1cc([N+](=O)[O-])cc([N+](=O)[O-])c1O` .
Response: inactive

Query: Could you kindly confirm the outcome this assay logged for BrCC(Br)C1CCC(Br)C(Br)C1 (configuration not stated) ?
Response: inactive

Query: Dear all, I need the recorded test outcome for `Cl/C=C\C[N+]12CN3CN(CN(C3)C1)C2` , thank you.
Response: inactive

Query: Look up the recorded call for `CCOc1ccc(C(C)(C)COCc2cccc(Oc3ccccc3)c2)cc1` in this test.
Response: inactive

Query: Please state the recorded outcome for this compound: `Clc1cccc2ccccc12`
Response: inactive

Query: Field: outcome | Entry: `CO/C=C(/C(=O)OC)c1ccccc1COc1cccc(C(F)(F)F)n1`
Response: inactive

Query: Test call for this compound, please: CC(C)N(CCC(C(N)=O)(c1ccccc1)c1ccccn1)C(C)C (configuration not stated)
Response: inactive

Query: Which outcome was assigned to O=C1C(Cl)C(CCl)CN1c1cccc(C(F)(F)F)c1 (configuration not stated) in this test?
Response: active

Query: Look up the recorded call for `CCOP(=S)(OCC)SCn1nnc2ccccc2c1=O` in this test.
Response: inactive

Query: Hi, do you know how `Nc1ccc(N=Nc2ccc(-c3ccc(N=Nc4c(S(=O)(=O)O)cc5cc(S(=O)(=O)O)c(N=Nc6ccccc6)c(O)c5c4N)cc3)cc2)c(N)c1` came out in this test?
Response: active

====

experiment: qHTS assay to identify small molecule agonists of the RXR signaling pathway - cell viability counter screen (AID 1159529); settings: RXR-alpha-bla HEK293T viability, CellTiter-Glo, 16 h; series mostly up to 76.8 µM; note: nearly all actives have a fitted effect of over 50% in size
Results filed as inconclusive are left out. The source made the active and inactive calls. Calls come from the whole dose curve; as a rule, active = well fitted cell-killing curve with a large enough effect in the repeat runs; inconclusive = weak or mixed curves, or effect the other way; inactive = no such curve, though single readings can be large or run the other way.
Select the matching outcome among 1 (yes) for active, 0 (no) for inactive

Query: Called result for `CCCN(CCCl)c1c([N+](=O)[O-])cc(C(F)(F)F)cc1[N+](=O)[O-]`
Response: 0 (no)

Query: Test call, this molecule: `O=C(CBr)Nc1ccc(Cl)cc1C(=O)c1ccccc1F`
Response: 0 (no)

Query: Hi, do you know how `O=C(C(Cl)(Cl)Cl)C(Cl)(Cl)Cl` came out in this test?
Response: 0 (no)

Query: Given `C=CC(=O)OCC(C)C` , state the outcome it received in this test.
Response: 0 (no)

Query: Which outcome did this test record for the molecule `C[C@]12CC[C@H]3[C@@H](CCC4=CC(=O)CC[C@@H]43)[C@@H]1CC[C@@H]2OC(=O)CCC1CCCCC1` ?
Response: 0 (no)

Query: Could you kindly confirm the outcome this assay logged for `CCn1cc[n+](C)c1` ?
Response: 0 (no)

Query: Fill in: this test's call for CC(C)N(CCC(C(N)=O)(c1ccccc1)c1ccccn1)C(C)C (stereo not given) is ___
Response: 0 (no)

Query: Outcome logged for `CC(=O)CCC(C)=O` in this assay:
Response: 0 (no)

Query: Test call, this molecule: `CN(C)c1ccc(N(C)C)cc1`
Response: 0 (no)

Query: Hello, I am checking results. What call was entered for `C/C(=C\c1ccccc1)[N+](=O)[O-]` ?
Response: 0 (no)

Query: Give the logged outcome of this assay for the following molecule: `O=S1(=O)OC(c2cc(Br)c(O)c(Br)c2)(c2cc(Br)c(O)c(Br)c2)c2ccccc21`
Response: 0 (no)

Query: Per the assay record, what outcome was assigned to `OC(c1ccc(Cl)cc1)(c1ccc(Cl)cc1)c1cccnc1` ?
Response: 0 (no)

Query: Look up the recorded call for `Oc1ccc(Cl)c(Cl)c1Cl` in this test.
Response: 0 (no)

Query: Lab log entry: `CCCCNP(N)(N)=S` — outcome as called in the assay?
Response: 0 (no)

Query: Given `NS(=O)(=O)C(F)(F)C(F)(F)C(F)(F)C(F)(F)C(F)(F)C(F)(F)C(F)(F)C(F)(F)F` , state the outcome it received in this test.
Response: 0 (no)

Query: // return assay outcome for `CO/C=C(/C(=O)OC)c1ccccc1COc1cccc(C(F)(F)F)n1`
Response: 0 (no)

Query: Could you kindly confirm the outcome this assay logged for `CCOC(=O)CBr` ?
Response: 0 (no)

Query: Returns: the outcome recorded for `C[N+](C)(C)CCCl` in this assay.
Response: 0 (no)

Query: Please share the test call associated with `O=C(CBr)c1ccccc1` .
Response: 0 (no)

Query: Recorded call for `COc1c(C(C)(C)C)cc([N+](=O)[O-])c(C)c1[N+](=O)[O-]` ?
Response: 0 (no)

Query: # fetch the recorded call for `C[C@H]1CNCCc2ccc(Cl)cc21` here
Response: 0 (no)

Query: Please indicate how the test categorized `O=C1C(=O)c2cccc3cccc1c23` .
Response: 0 (no)

Query: Call for entry `O=C(CBr)OCc1ccccc1` :
Response: 0 (no)

Query: Test call for this molecule, please: `CCOC(=O)[C@]1(c2ccccc2)Oc2ccccc2[C@@H]1N`
Response: 0 (no)

Query: Which result was noted for this molecule in the test: `Clc1cc(Cl)c(Cl)c(Cl)c1`
Response: 0 (no)

Query: Please indicate how the test categorized `Cc1cc(=O)[nH]o1` .
Response: 0 (no)

Query: Lab log entry: `C=CC(=O)OC(C)(C)C` — outcome as called in the assay?
Response: 0 (no)

Query: Recorded call for `C=CCCl` ?
Response: 0 (no)

Query: GET /call?item= `NNC(=O)c1cccnc1` returns the recorded outcome of this test.
Response: 0 (no)

Query: Kindly provide the recorded test outcome for the following molecule: `CCOS(C)(=O)=O`
Response: 0 (no)

Query: Just curious, what result did `c1cc2ccc3cccc4ccc(c1)c2c34` get here?
Response: 1 (yes)

Query: Could you check what this test reported for `ClP(Cl)(Cl)(Cl)Cl` ?
Response: 0 (no)

Query: Identify the outcome logged in this assay for the molecule shown: `C#CCOC(C(=O)OCCN(C)C)(c1ccccc1)c1ccccc1`
Response: 0 (no)

Query: How did this test come out for `ClCc1cccc(Cl)c1` ?
Response: 0 (no)

Query: Which outcome was assigned to ClCC(Br)CBr (stereo not given) in this test?
Response: 0 (no)

====

test: qHTS assay to identify small molecule antagonists of the progesterone receptor (PR) signaling pathway - cell viability counter screen (AID 1346798); conditions: PR-UAS-bla HEK293T viability, CellTiter-Glo luminescence, 16 h; series mostly up to 92.4 µM; note: nearly all actives have a fitted effect of over 50% in size
Records with an inconclusive call do not appear. Activity calls are given as the source filed them. Calls follow the shape of the dose curve; as a rule, active = well fitted cell-killing curve with a large enough effect in the repeat runs; inconclusive = weak or mixed curves, or effect the other way; inactive = no such curve, though single readings can be large or run the other way.
Please reply with one of these outcomes: active, inactive

Query: Give the logged outcome of this assay for the following compound: COP(=S)(Oc1cc(Cl)c(Br)cc1Cl)c1ccccc1 (stereo not drawn)
Response: inactive

Query: Dear all, I need the recorded test outcome for O=S1OC[C@@H]2[C@H](CO1)[C@]1(Cl)C(Cl)=C(Cl)[C@@]2(Cl)C1(Cl)Cl (stereo partly drawn) , thank you.
Response: inactive

Query: Hi, sorry to bother you, what did the test record for CCCCC(CC)COP(=O)(Oc1ccccc1)Oc1ccccc1 (stereo not drawn) ?
Response: inactive

Query: Check the results log: what was the call for `CCOP(O)OCC` ?
Response: inactive

Query: What classification did `COP(=O)(OC)O/C(=C/Cl)c1cc(Cl)c(Cl)cc1Cl` end up with in this test?
Response: inactive

Query: Per the assay record, what outcome was assigned to `COc1nn(C(=O)NS(=O)(=O)c2ccccc2OC(F)(F)F)c(=O)n1C` ?
Response: inactive

Query: Kindly provide the recorded test outcome for the following compound: `NCCCNCCCN`
Response: inactive

Query: Would you mind telling me which call this test gave CC(C)(C)C(O)C(Oc1ccc(Cl)cc1)n1cncn1 (stereo not drawn) ?
Response: active

Query: Just curious, what result did `Sc1ccccc1Cl` get here?
Response: inactive

Query: // param item: `O=C(O)c1ccccc1C(=O)Nc1cccc2ccccc12` ; yields the recorded call
Response: inactive

Query: What call does the record list for `C=CC(=O)NCNC(=O)C=C` ?
Response: inactive

Query: In this assay, the call recorded for `C=CC(C)=O` was what?
Response: inactive

Query: GET /call?item= `Nc1ccc(N=Nc2ccc(-c3ccc(N=Nc4c(S(=O)(=O)O)cc5cc(S(=O)(=O)O)c(N=Nc6ccccc6)c(O)c5c4N)cc3)cc2)c(N)c1` returns the recorded outcome of this test.
Response: inactive
